Tested on: SK-OV-3 ovarian
Assay: NCI tumour cell line growth inhibition, 48 h
measured.quantity: TGI

compound	recorded.value
N#CC(NNC(=O)Cc1ccccc1)c1cccc(O)c1 (stereo not given)	> 100 µM
Nc1ccc2n[se]nc2c1	> 100 µM
CC1=NN(c2nc(N)nc(NS(=O)(=O)c3cc(C)c(Cl)cc3S)n2)C(C)(C)C1	> 10 µM
CC(C)(C)c1cc(CCC(=O)Nc2ccc(Cl)cc2)[nH]c(=S)n1	> 100 µM
CC1=CC2C(C=C1)S(=O)(=O)N1CC21c1ccccc1 (stereo not given)	> 100 µM
CC1(C)C2CCC3CC(CCC#N)CCC3C21C#N (stereo not given)	> 100 µM
CC(=O)OI1NC(=O)c2ccccc21	> 100 µM
CC(C)Oc1c(C2(c3ccccc3)SCCCS2)c(=O)c1=O	> 100 µM
CCCCCC(=O)N[C@@H](c1ccco1)[C@@H](O)C(=O)O[C@H]1C[C@@]2(O)[C@@H](OC(=O)c3ccccc3)[C@@H]3[C@]4(OC(C)=O)CO[C@@H]4C[C@H](O)[C@@]3(C)C(=O)[C@H](OC(C)=O)C(=C1C)C2(C)C	> 25 µM
COc1cccc(/C=C/C(=O)c2ccc3cc(OC)ccc3c2)c1	22.7 µM

----------
Collected TGI values appear next to each entry.
Tested on: SF-539 CNS
Test: NCI tumour cell line growth inhibition, 48 h
measured.quantity: TGI (µM)

> print(dat)
                                    compound  system.under.test  measured.quantity  relation.qualifier  recorded.value
 1  CC(=O)C1CCN(c2ccccc2)C1 (stereo not given)         SF-539 CNS                TGI                   >             100
 2                                 OCC#CCNCl         SF-539 CNS                TGI                   >             100
 3  O[C@]12C=C(c3nccc4c3[nH]c3ccccc34)[C@@H]3CCN(CCCC/C=C\CC1)C[C@@]31CC3/C=C\CCCCN3[C@H]12 (stereo not given in full)         SF-539 CNS                TGI                   =             4.6
 4  CCOC(=O)C(C)(NC(=O)c1ccc(NCc2ccc3nc(NC(=O)c4ccccc4)nc(NC(=O)c4ccccc4)c3c2)cc1)C(=O)OCC         SF-539 CNS                TGI                   =            9.88
 5   CCOCC1(COCC)CCC(c2[nH]ncc2CN(C)CCNC)CC1         SF-539 CNS                TGI                   >             100
 6        CSc1ccc(C2=C(c3ccccc3)C(=O)OC2)cc1         SF-539 CNS                TGI                   =            12.3
 7        Cc1c(C)c2c(c(N)c1C#N)C(=O)N(O)C2=O         SF-539 CNS                TGI                   >             100
 8        CSc1nc(=S)[nH]c2c1c(C)nn2-c1ccccc1         SF-539 CNS                TGI                   =            98.2
 9  COc1cc(-c2cc(/C=C/C(=O)c3ccc(F)c(F)c3)[nH]n2)cc(OC)c1OC         SF-539 CNS                TGI                   =            17.7
10  CC(C)(C)c1cc(C(=O)Nc2ccccc2C(=O)NCCN)cc(C(C)(C)C)c1         SF-539 CNS                TGI                   =             3.5
